Hi there, I'd appreciate the recorded pIC50 for every entry that follows.
test system: NCI-H929 cells; test: Cell viability assay (NCI-H929 cells), CCK-8; type: cell-based; settings: Homo sapiens, NCI-H929, 24 h, 5% FBS
Friendly reminder that pIC50 comes from taking -log10 of the concentration in mol/L.

Given the entry CO[C@H]1C2=C[C@@H](C2)[C@H](C)[C@@H](C)S(=O)(=O)NC(=O)c2ccc3c(c2)N(C[C@@H]2CC[C@H]21)C[C@@]1(CCCc2c1ccc(Cl)c2F)CO3 (single isomer, unassigned) [Cpd. No. 17 (isomer 1)] , report its measured pIC50. 7.80

Same lookup for C[C@@H]1[C@@H](C)S(=O)(=O)NC(=O)c2ccc3c(c2)N(C[C@@H]2CC[C@H]2[C@@H](OCCS(C)(=O)=O)C2=C[C@H]1C2)C[C@@]1(CCCc2c1ccc(Cl)c2F)CO3 [compound 61] , please. 7.55

Same lookup for CO[C@@]1(CN2CCN3CCOC[C@@H]3C2)C2=C[C@@H](C2)[C@H](C)[C@@H](C)S(=O)(=O)NC(=O)c2ccc3c(n2)N(C[C@@H]2CC[C@H]21)C[C@@]1(CCCc2c1ccc(Cl)c2F)CO3 [compound 54] , please. 8.31

Same lookup for COCCO[C@H]1C2=C[C@@H](C2)[C@H](C)[C@@H](C)S(=O)(=O)NC(=O)c2ccc3c(c2)N(C[C@@H]2CC[C@H]21)C[C@@]1(CCCc2c1ccc(Cl)c2F)CO3 [compound 60] , please. 7.72

Same lookup for C[C@@H]1[C@@H](C)S(=O)(=O)NC(=O)c2ccc3c(c2)N(C[C@@H]2CC[C@H]2[C@@H](OCC(=O)N2CCCC2)C2=C[C@H]1C2)C[C@@]1(CCCc2c1ccc(Cl)c2F)CO3 [compound 68] , please. 7.37

Same lookup for C[C@@H]1[C@@H](C)S(=O)(=O)NC(=O)c2ccc3c(c2)N(C[C@@H]2CC[C@H]2[C@@H](OCC(=O)N2CCN(C)CC2)C2=C[C@H]1C2)C[C@@]1(CCCc2c1ccc(Cl)c2F)CO3 [compound 70] , please. 7.09

Same lookup for CC(=O)N1CCN(CCO[C@H]2C3=C[C@@H](C3)[C@H](C)[C@@H](C)S(=O)(=O)NC(=O)c3ccc4c(c3)N(C[C@@H]3CC[C@H]32)C[C@@]2(CCCc3c2ccc(Cl)c3F)CO4)CC1 [compound 87] , please. 7.57

Same lookup for C[C@@H]1[C@@H](C)S(=O)(=O)NC(=O)c2ccc3c(c2)N(C[C@@H]2CC[C@H]2[C@@H](OCC(=O)N(C)C)C2=C[C@H]1C2)C[C@@]1(CCCc2c1ccc(Cl)c2F)CO3 [compound 64] , please. 8.03

Same lookup for C[C@@H]1[C@@H](C)S(=O)(=O)NC(=O)c2ccc3c(c2)N(C[C@@H]2CC[C@H]2[C@@H](OCCN2CCC(F)(F)CC2)C2=C[C@H]1C2)C[C@@]1(CCCc2c1ccc(Cl)c2F)CO3 [compound 95] , please. 7.36

Same lookup for CO[C@@]1(CN2CCN(C3CCOCC3)CC2)C2=C[C@@H](C2)[C@H](C)[C@@H](C)S(=O)(=O)NC(=O)c2ccc3c(c2)N(C[C@@H]2CC[C@H]21)C[C@@]1(CCCc2c1ccc(Cl)c2F)CO3 [compound 36] , please. 8.36

Same lookup for CO[C@@]1(CN2CCC(N3CCOCC3)CC2)C2=C[C@@H](C2)[C@H](C)[C@@H](C)S(=O)(=O)NC(=O)c2ccc3c(n2)N(C[C@@H]2CC[C@H]21)C[C@@]1(CCCc2c1ccc(Cl)c2F)CO3 [compound 93] , please. 7.96

Same lookup for CO[C@@H]1C2CC(C2)[C@H](C)N(C)S(=O)(=O)NC(=O)c2ccc3c(c2)N(C[C@@H]2CC[C@H]21)C[C@@]1(CCCc2cc(Cl)ccc21)CO3 [Cpd. No. 29] , please. 5.26

Same lookup for C[C@@H]1[C@@H](C)S(=O)(=O)NC(=O)c2ccc3c(c2)N(C[C@@H]2CC[C@H]2[C@@H](OCCN2CCOCC2)C2=C[C@H]1C2)C[C@@]1(CCCc2c1ccc(Cl)c2F)CO3 [compound 59] , please. 8.39

Same lookup for CO[C@@]1(CN2CCOCC2)C2=C[C@@H](C2)[C@H](C)[C@@H](C)S(=O)(=O)NC(=O)c2ccc3c(c2)N(C[C@@H]2CC[C@H]21)C[C@@]1(CCCc2c1ccc(Cl)c2F)CO3 [compound 33] , please. 7.44

Same lookup for C[C@@H]1[C@@H](C)S(=O)(=O)NC(=O)c2ccc3c(c2)N(C[C@@H]2CC[C@H]2[C@@H](OCCN2CCCC2)C2=C[C@H]1C2)C[C@@]1(CCCc2c1ccc(Cl)c2F)CO3 [compound 66] , please. 8.11

Same lookup for CNC[C@]1(OC)C2=C[C@@H](C2)[C@H](C)[C@@H](C)S(=O)(=O)NC(=O)c2ccc3c(c2)N(C[C@@H]2CC[C@H]21)C[C@@]1(CCCc2c1ccc(Cl)c2F)CO3 [compound 52] , please. 7.72

Same lookup for CO[C@H]1C2=C[C@H](C2)[C@H](C)N(C[C@@H]2CCCO2)S(=O)(=O)NC(=O)c2ccc3c(c2)N(C[C@@H]2CC[C@H]21)C[C@@]1(CCCc2cc(Cl)ccc21)CO3 (single isomer, unassigned) [30 (isomer 1)] , please. 5.54
